- test system: human CYP2C9, CYP2C9 (gene 1559)
- experiment summary: NVS_ADME_hCYP2C9: NovaScreen (NVS) CYP450-related Enzyme Activity (ADME) Assay for human CYP2C9 (AID 2283108)
- Procedure: NVS_ADME_hCYP2C9 is a biochemical, single-readout assay that uses extracted gene-proteins from SF9 in a cell-free assay. Measurements were taken 0.75 hour after chemical dosing in a 96-well plate.NVS_ADME_hCYP2C9 is one of one assay component(s) measured or calculated from the NVS_ADME_hCYP2C9 assay. […] This assay endpoint, NVS_ADME_hCYP2C9, was analyzed in the positive analysis fitting direction relative to Acetonitrile as the negative control and baseline of activity. […]
Results filed as inconclusive are left out. Active and inactive are the calls of the source. The calls were made as follows: active = hit-call score of the fitted dose curve at least 0.9, where 1 is the maximum; inconclusive = response in the unintended direction; inactive = score below 0.9.
Permitted responses: active, inactive

Known results for compounds:
INSERT INTO results (compound, cat) VALUES
  ('CC(C)c1cccc(C(C)C)c1N1C(=O)c2ccc(O)cc2C1=O', 'active'),
  ('CCN(C(=O)c1cc(C)cc(OC[C@H](C)Nc2ccncc2)c1)C(C)C', 'active'),
  ('CCc1cc(SCc2sc(-c3ccc(C(F)(F)F)cc3)nc2CN2CCN(c3ccc(OC)cc3)CC2)ccc1OCC(=O)O', 'inactive'),
  ('COc1ccc(/C=C/S(=O)(=O)NC(=O)c2ccc(C)cc2Cl)cc1', 'active'),
  ('CCOC(=O)c1ccc(C2CCC(NC[C@H](O)COc3ccc(O)c(NS(C)(=O)=O)c3)CC2)cc1 (stereo partly specified)', 'active');

Next, consider the following compound.
Q. Answer briefly: the call reported for O=C(NS(=O)(=O)/C=C/c1ccccc1)c1ccc(F)cc1Cl in this assay.
A. active

---

- Read-out: succinate dehydrogenase complex iron sulfur subunit B (SDHB), SDHB (gene 6390)
- experiment summary: LTEA_HepaRG_SDHB: Life Technologies and Expression Analysis (LTEA) Assay for succinate dehydrogenase complex iron sulfur subunit B (SDHB) using HepaRG (AID 2283528)
- run parameters: mRNA level, 48 h; actives raise or lower the signal
The source made the active and inactive calls. The calls were made as follows: active = hit-call score of the fitted dose curve at least 0.9, where 1 is the maximum; inactive = score below 0.9.
Permitted responses: YES = active, NO = inactive

Q. Answer briefly: the call reported for CC(C)=CCC/C(C)=C/CO in this assay.
A. NO

Q. Answer briefly: the call reported for CC(O)CN(CCN(CC(C)O)CC(C)O)CC(C)O (stereo unspecified) in this assay.
A. NO

Q. Answer briefly: the call reported for CC(=O)OCCC(C)C in this assay.
A. NO

Q. Answer briefly: the call reported for CCOC(=O)COc1ccc2c(c1)CC(NCC(O)c1cccc(Cl)c1)CC2 (stereo unspecified) in this assay.
A. NO

Q. Answer briefly: the call reported for CC(C)CCCCCCCOC(=O)CCCCC(=O)OCCCCCCCC(C)C in this assay.
A. NO

Q. Answer briefly: the call reported for Cc1[nH]cnc1C[C@H]1CCc2c(C)c3ccccc3n2C1=O in this assay.
A. YES

Q. Answer briefly: the call reported for CN(C)c1ccc(N=NS(=O)(=O)O)cc1 in this assay.
A. NO

Q. Answer briefly: the call reported for Nc1cccc(N)c1 in this assay.
A. NO

Q. Answer briefly: the call reported for O=C1OC(=O)C2C3C=CC(C3)C12 (stereo unspecified) in this assay.
A. NO

---

- experiment summary: APR_HepG2_p53Act_72hr: Apredica 72-hour HepG2 Assay for p53 Activation (AID 2282923);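 also: average cellular p53 protein immunofluorescence intensity in HepG2 cells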
- run parameters: high-content imaging, actives raise or lower the signal
The source made the active and inactive calls. The calls were made as follows: active = hit-call score of the fitted dose curve at least 0.9, where 1 is the maximum; inactive = score below 0.9.
Permitted responses: label 1 = active, label 0 = inactive

Known results for molecules:
INSERT INTO assay_data (molecule, cat) VALUES
  ('Cc1[nH]cnc1C[C@H]1CCc2c(C)c3ccccc3n2C1=O', 'label 1'),
  ('CCCCC(CC)COC(=O)c1ccc(C(=O)OCC(CC)CCCC)cc1 (stereo not drawn)', 'label 0');

Next, consider the following molecule.
Q. Answer briefly: the call reported for COc1ccc(-n2nc(C(F)F)cc2-c2ccc(S(C)=O)cc2)cc1 (stereo not drawn) in this assay.
A. label 0

---

- Read-out: solute carrier (SLCO1B1), SLCO1B1 (gene 10599)
- experiment summary: LTEA_HepaRG_SLCO1B1: Life Technologies and Expression Analysis (LTEA) Assay for solute carrier (SLCO1B1) using HepaRG (AID 2283530)
- run parameters: mRNA level, 48 h; actives raise or lower the signal
Calls of active or inactive are those of the source. The calls were made as follows: active = hit-call score of the fitted dose curve at least 0.9, where 1 is the maximum; inactive = score below 0.9.
measured quantity: outcome

INSERT INTO measurements (compound, measured_quantity, meas_value) VALUES
  ('CCOC(=O)COc1ccc2c(c1)CC(NCC(O)c1cccc(Cl)c1)CC2 (stereo not drawn)', 'outcome', 'inactive'),
  ('Nc1cccc(N)c1', 'outcome', 'inactive'),
  ('CN(C)c1ccc(N=NS(=O)(=O)O)cc1', 'outcome', 'inactive');

---

- experiment summary: ATG_EGR_CIS: Attagene CIS-FACTORIAL HepG2 Assay for human Early Growth Response 1 (EGR1) (AID 2282938)
- run parameters: HepG2 Attagene CIS-FACTORIAL EGR reporter mRNA; actives raise or lower the signal
Calls of active or inactive are those of the source. The calls were made as follows: active = hit-call score of the fitted dose curve at least 0.9, where 1 is the maximum; inactive = score below 0.9.
Permitted responses: YES (active), NO (inactive)

Known results for molecules:
INSERT INTO results (molecule, cat) VALUES
  ('O=C(NS(=O)(=O)/C=C/c1ccccc1)c1ccc(F)cc1Cl', 'NO'),
  ('CN(C)c1ccc(N=NS(=O)(=O)O)cc1', 'NO');

Next, consider the following molecule.
Q. Answer briefly: the call reported for O=c1[nH]c2ccc(S(=O)CCN3CCC(Cc4ccc(F)cc4)CC3)cc2o1 (configuration not stated) in this assay.
A. YES

---

- Read-out: Urokinase-type plasminogen activator receptor (uPAR), PLAUR (gene 5329)
- experiment summary: BSK_CASM3C_uPAR: BioMAP Diversity Plus: CASM3C Assay for Urokinase-type plasminogen activator receptor (uPAR) Biomarker Activity (AID 2283054);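 also: cell-surface uPAR protein level quantified by ELISA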
- run parameters: primary human coronary artery smooth muscle cells; actives raise or lower the signal
Activity calls are given as the source filed them. The calls were made as follows: active = hit-call score of the fitted dose curve at least 0.9, where 1 is the maximum; inactive = score below 0.9.
Permitted responses: active, inactive

INSERT INTO results (molecule, cat) VALUES
  ('O=C(NS(=O)(=O)/C=C/c1ccccc1)c1ccc(F)cc1Cl', 'inactive'),
  ('COc1cccc(-c2ccc(/C=C\CN3CCCCCC3)cc2Cl)c1', 'active'),
  ('CNS(=O)(=O)c1cc(C(=O)N2CCC(CCN3C4CCC3CC(n3c(C)nc5ccccc53)C4)(c3cccc(F)c3)CC2)c(Cl)cc1F (centres undefined)', 'inactive'),
  ('CCCCC(CC)COC(=O)c1ccc(C(=O)OCC(CC)CCCC)cc1 (centres undefined)', 'inactive'),
  ('Cc1c(-c2cccnc2)c2ccccc2n1CCCCC(=O)O', 'inactive');

Next, consider the following molecule.
Q. Answer briefly: the call reported for CCc1cc(SCc2sc(-c3ccc(C(F)(F)F)cc3)nc2CN2CCN(c3ccc(OC)cc3)CC2)ccc1OCC(=O)O in this assay.
A. active

---

- Read-out: Fatty acid synthase (Homo sapiens) (UniProt P49327)
- Sequence (P49327 whole entry, looked up): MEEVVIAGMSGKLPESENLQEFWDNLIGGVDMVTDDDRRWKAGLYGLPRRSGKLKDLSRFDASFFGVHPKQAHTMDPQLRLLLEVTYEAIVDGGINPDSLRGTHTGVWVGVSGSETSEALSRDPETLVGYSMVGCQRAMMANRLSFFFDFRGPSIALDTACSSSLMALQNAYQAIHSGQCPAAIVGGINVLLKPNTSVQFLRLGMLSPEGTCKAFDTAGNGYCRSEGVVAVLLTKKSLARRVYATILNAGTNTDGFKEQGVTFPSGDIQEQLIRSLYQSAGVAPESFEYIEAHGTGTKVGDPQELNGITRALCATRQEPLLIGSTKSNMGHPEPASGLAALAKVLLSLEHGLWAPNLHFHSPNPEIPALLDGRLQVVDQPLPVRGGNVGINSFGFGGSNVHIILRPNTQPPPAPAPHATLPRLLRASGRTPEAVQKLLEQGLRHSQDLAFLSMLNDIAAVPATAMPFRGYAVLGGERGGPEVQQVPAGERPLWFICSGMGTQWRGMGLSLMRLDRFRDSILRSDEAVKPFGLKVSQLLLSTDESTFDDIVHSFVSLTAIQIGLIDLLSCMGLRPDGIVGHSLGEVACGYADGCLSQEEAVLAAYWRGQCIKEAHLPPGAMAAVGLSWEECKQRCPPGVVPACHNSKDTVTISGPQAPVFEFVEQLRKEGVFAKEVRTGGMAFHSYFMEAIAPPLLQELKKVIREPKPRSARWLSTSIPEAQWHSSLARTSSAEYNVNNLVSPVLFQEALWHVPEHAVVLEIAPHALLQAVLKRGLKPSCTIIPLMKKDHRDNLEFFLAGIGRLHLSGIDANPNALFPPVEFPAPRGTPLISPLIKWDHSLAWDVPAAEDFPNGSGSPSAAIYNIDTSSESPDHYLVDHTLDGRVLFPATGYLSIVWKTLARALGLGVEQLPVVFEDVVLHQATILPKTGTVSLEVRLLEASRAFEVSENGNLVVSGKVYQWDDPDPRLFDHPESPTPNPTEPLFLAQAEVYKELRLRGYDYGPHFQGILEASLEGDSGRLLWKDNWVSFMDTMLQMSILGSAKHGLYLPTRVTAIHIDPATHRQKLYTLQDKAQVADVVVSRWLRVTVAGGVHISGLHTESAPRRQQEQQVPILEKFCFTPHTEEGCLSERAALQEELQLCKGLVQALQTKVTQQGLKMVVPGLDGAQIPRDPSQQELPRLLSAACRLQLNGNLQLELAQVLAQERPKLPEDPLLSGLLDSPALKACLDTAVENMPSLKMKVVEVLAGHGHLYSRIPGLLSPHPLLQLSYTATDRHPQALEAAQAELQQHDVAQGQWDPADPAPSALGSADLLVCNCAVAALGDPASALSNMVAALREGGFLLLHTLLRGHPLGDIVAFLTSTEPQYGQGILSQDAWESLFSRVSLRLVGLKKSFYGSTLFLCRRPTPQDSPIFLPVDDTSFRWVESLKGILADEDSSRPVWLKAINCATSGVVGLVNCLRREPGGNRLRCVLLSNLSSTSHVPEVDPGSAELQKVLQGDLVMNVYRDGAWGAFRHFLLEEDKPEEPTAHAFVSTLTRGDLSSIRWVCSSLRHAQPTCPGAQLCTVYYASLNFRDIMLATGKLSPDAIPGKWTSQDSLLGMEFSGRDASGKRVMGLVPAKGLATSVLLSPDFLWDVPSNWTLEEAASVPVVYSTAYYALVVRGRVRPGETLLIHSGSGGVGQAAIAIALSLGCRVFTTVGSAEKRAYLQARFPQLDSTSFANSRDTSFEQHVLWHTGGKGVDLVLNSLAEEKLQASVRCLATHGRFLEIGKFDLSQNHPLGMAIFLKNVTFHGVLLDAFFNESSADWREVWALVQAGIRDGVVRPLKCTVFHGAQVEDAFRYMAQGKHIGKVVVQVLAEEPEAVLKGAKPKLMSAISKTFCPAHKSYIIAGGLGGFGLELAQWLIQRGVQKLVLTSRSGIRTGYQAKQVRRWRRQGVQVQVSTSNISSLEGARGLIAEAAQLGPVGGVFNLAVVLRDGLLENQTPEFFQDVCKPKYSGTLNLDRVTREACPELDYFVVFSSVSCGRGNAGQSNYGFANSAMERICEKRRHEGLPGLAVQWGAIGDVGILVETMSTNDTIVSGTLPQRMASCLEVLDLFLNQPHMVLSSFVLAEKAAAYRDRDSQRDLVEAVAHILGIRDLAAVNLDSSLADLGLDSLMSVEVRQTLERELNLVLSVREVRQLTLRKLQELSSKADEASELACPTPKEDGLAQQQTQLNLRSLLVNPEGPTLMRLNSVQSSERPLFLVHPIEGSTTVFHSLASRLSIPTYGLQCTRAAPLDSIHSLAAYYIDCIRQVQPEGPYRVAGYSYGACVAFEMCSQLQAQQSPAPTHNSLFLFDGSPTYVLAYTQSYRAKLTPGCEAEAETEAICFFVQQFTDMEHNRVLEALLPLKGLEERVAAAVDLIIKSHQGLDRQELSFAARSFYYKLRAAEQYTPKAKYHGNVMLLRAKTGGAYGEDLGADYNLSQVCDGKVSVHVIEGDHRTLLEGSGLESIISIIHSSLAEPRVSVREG
- experiment summary: LTEA_HepaRG_FASN: Life Technologies and Expression Analysis (LTEA) Assay for Fatty Acid Synthase (FASN) using HepaRG (AID 2283448)
- run parameters: mRNA level, 48 h; actives raise or lower the signal
The source made the active and inactive calls. The calls were made as follows: active = hit-call score of the fitted dose curve at least 0.9, where 1 is the maximum; inactive = score below 0.9.
Permitted responses: YES (active), NO (inactive)

INSERT INTO results (compound, cat) VALUES
  ('COC(=O)CC(=O)OC', 'YES'),
  ('COCCOc1cc2cc(C(=O)NC3CCN(C(C)C)CC3)n(CC(=O)Nc3ccc(Cl)cn3)c2cn1', 'YES'),
  ('CCCCCCc1ccc(O)cc1O', 'NO'),
  ('O=C(O)c1cc(N=Nc2ccc(S(=O)(=O)Nc3ccccn3)cc2)ccc1O', 'NO'),
  ('Oc1ccc2c(c1)-c1ccccc1C2', 'NO'),
  ('Cn1cnc([N+](=O)[O-])c1Sc1ncnc2nc[nH]c12', 'NO'),
  ('CCn1nc(Cc2ccccc2)cc1C1CCN(C[C@H]2C[C@H](N(C)[C@@H](C(=O)O)C(C)C)C[C@@H]2c2cccc(F)c2)CC1', 'NO'),
  ('CC1=CC(=O)CC(C)(C)C1', 'NO'),
  ('Cc1[nH]cnc1C[C@H]1CCc2c(C)c3ccccc3n2C1=O', 'YES'),
  ('O=C1CCCCCN1', 'NO');

Q. Answer briefly: the call reported for CC(C)CCCCCCCOC(=O)CCCCC(=O)OCCCCCCCC(C)C in this assay.
A. NO

Q. Answer briefly: the call reported for O=C1CCC(N2C(=O)c3ccccc3C2=O)C(=O)N1 (centres undefined) in this assay.
A. NO

Q. Answer briefly: the call reported for O=c1n(CC2CO2)c(=O)n(CC2CO2)c(=O)n1CC1CO1 (centres undefined) in this assay.
A. NO

Q. Answer briefly: the call reported for Fc1ccccc1[C@@H](F)COC1CCC(Nc2ncnc3[nH]ncc23)CC1 (some centres undefined) in this assay.
A. YES

Q. Answer briefly: the call reported for CCC(C)(C)C(=O)O[C@H]1C[C@@H](C)C=C2C=C[C@H](C)[C@H](CC[C@@H]3C[C@@H](O)CC(=O)O3)[C@H]21 in this assay.
A. YES

Q. Answer briefly: the call reported for O=C(O)CCN(C1(C(=O)NO)CCCC1)S(=O)(=O)c1ccc(Oc2ccc(F)cc2)cc1 in this assay.
A. NO

Q. Answer briefly: the call reported for CCCN(C1CCN(C(=O)C2CCNCC2)CC1)[C@@H]1CCc2ccc(OC)cc2C1 in this assay.
A. YES

Q. Answer briefly: the call reported for CCNc1ccccc1 in this assay.
A. NO

Q. Answer briefly: the call reported for O=C1OC(=O)C2C3C=CC(C3)C12 (centres undefined) in this assay.
A. NO
